Values from ChEMBL document CHEMBL3808309

assay: Inhibition of bovine testis hyaluronidase using hyaluronic acid as substrate preincubated with CaCl2 for 20 mins followed by incubation with compound for 20 mins and substrate for 10 mins by colorimetric Morgan-Elson method; design: species or system Bos taurus
quantityName: pIC50
Scale for pIC50: -log10 of concentration given in mol/L; no unit attached.

Exercise: Entry under review: CCCCCCCCCCCCCCCC(=O)OC[C@H](O)C1OC(=O)C(O)=C1O (stereo not given in full) . Reported pIC50?
Solution: 4.33

Exercise: Entry under review: O=C(O)[C@H]1O[C@@H](Oc2cc3oc(-c4ccccc4)cc(=O)c3c(O)c2O)[C@H](O)[C@@H](O)[C@@H]1O [BAICALIN] . Reported pIC50?
Solution: 2.85

Exercise: Entry under review: COc1ccc2c(c1)c(CC(=O)O)c(C)n2C(=O)c1ccc(Cl)cc1 [INDOMETHACIN] . Reported pIC50?
Solution: 2.85

Exercise: Entry under review: CC1(C)[C@@H](O[C@H]2O[C@H](C(=O)O)[C@@H](O)[C@H](O)[C@H]2O[C@@H]2O[C@H](C(=O)O)[C@@H](O)[C@H](O)[C@H]2O)CC[C@]2(C)[C@H]3C(=O)C=C4[C@@H]5C[C@@](C)(C(=O)O)CC[C@]5(C)CC[C@@]4(C)[C@]3(C)CC[C@@H]12 [GLYCYRRHIZIN] . Reported pIC50?
Solution: 4.54

Exercise: Entry under review: O=C(O)c1cc(=O)c2c(OCC(O)COc3cccc4oc(C(=O)O)cc(=O)c34)cccc2o1 [CROMOLYN SODIUM] . Reported pIC50?
Solution: 2.77
